- Assay Context: in methanol, 293.2 K
Metric: solubility (mole fraction)

>>> numeric_value("O=c1cc(-c2ccccc2)oc2c1ccc1ccccc12")
0.00171

---

- Assay Context: in cyclohexane, 293.15 K
Metric: solubility (mole fraction)

>>> numeric_value("O=c1cc(-c2ccccc2)oc2c1ccc1ccccc12")
0.000246

---

- Assay Context: in n-butanol, 283.15 K
Metric: solubility (mole fraction)

>>> numeric_value("O=c1cc(-c2ccccc2)oc2c1ccc1ccccc12")
0.00194

---

- Assay Context: in ethyl acetate, 288.15 K
Metric: solubility (mole fraction)

>>> numeric_value("O=c1cc(-c2ccccc2)oc2c1ccc1ccccc12")
0.00461
